# Test system: Beta-2 adrenergic receptor (Homo sapiens)
# Method summary: Adrenergic beta2 receptor (ADRB2) small molecule antagonists, cell-based qHTS assay (AID 1963592); note: % is set by controls: 0 for no effect and ±100 for the full control effect; nearly all actives have a fitted effect of over 50% in size
# Condition set: CHO-ADRB2 cells, isoproterenol-stimulated cAMP HTRF ratio, 0.5 h; series mostly up to 92.4 µM
# From the text: U.S. Tox21 Program National Center for Advancing Translational Sciences [NCATS] Division of Preclinical Innovation [DPI] U.S. Environmental Protection Agency [EPA] National Institutes of Environmental Health Sciences [NIEHS] National Toxicology Program [NTP] U.S. Food and Drug Administration [FDA] […] The principle of cAMP-Gs dynamic assay is based on HTRF technology, which facilitates the fluorescence resonance energy transfer (FRET) between donor Europium cryptate and acceptor d2-labeled cAMP. […]
Inconclusive results are not listed. Activity calls are given as the source filed them. Calls come from the whole dose curve.
Observation type: activity change, negative = inhibition

| Compound | Observation type | Result |
| --- | --- | --- |
| CC(COc1ccccc1)NC(C)C(O)c1ccc(O)cc1 (stereo not given) | activity change, negative = inhibition | inactive |
| CCC1(C)C(=O)N(Cl)C(=O)N1Cl (stereo not given) | activity change, negative = inhibition | inactive |
| CC(=O)Nc1ccc(N)cc1 | activity change, negative = inhibition | inactive |
| C[C@]12C=CC(=O)C=C1[C@@H](F)C[C@@H]1[C@@H]2[C@@H](O)C[C@@]2(C)[C@H]1CC[C@]2(O)C(=O)CO | activity change, negative = inhibition | inactive |

The record that follows has no activity change, negative = inhibition shown yet.
Can you look up the measured activity change, negative = inhibition of `O=Cc1ccc(F)c(Br)c1` for me?
inactive

====

# Test system: D(2) dopamine receptor (Homo sapiens)
# Method summary: Dopamine D2 receptor (DRD2) small molecule antagonists, cell-based qHTS assay (AID 1963595); note: potency is the fitted concentration of half-maximal effect
# Condition set: HEK293-DRD2 cAMP HTRF antagonist mode; series mostly up to 92.4 µM
Inconclusive results are not listed. Calls of active or inactive are those of the source. Calls follow the shape of the dose curve; as a rule, active = well fitted inhibition curve with a large enough effect in the signal ratio in the repeat runs, with a control signal flat; inconclusive = weak or mixed curves, or effect the other way; inactive = flat fitted curve, though single readings scatter; the % refers to the signal ratio.
Observation type: Potency

Worked cases, Potency given:
| Smiles | Potency |
| --- | --- |
| CCCCCCCC[P+](CCCCCCCC)(CCCCCCCC)CCCCCCCC | 13.6 µM (active) |
| C=CC(=O)OCC(CO)(COCC(COC(=O)C=C)(COC(=O)C=C)COC(=O)C=C)COC(=O)C=C | 27 µM (active) |
| Cc1cc(O)c(C(C)(C)C)cc1C(C)(C)C | 43.3 µM (active) |

The record that follows has no Potency shown yet.
Entry `CN1CCC(=C2c3ccccc3C=Cc3ccccc32)CC1` , system D(2) dopamine receptor (Homo sapiens): what Potency was measured?
13.3 µM (active)

====

Below: a set of entries, each annotated with reported activity, positive = activation.
# Method summary: Nuclear factor erythroid 2-related factor 2/antioxidant responsive element (Nrf2/ARE) small molecule agonists: luciferase reporter gene qHTS assay in human keratinocytes (AID 1919969); note: % is set by controls: 0 for no effect and ±100 for the full control effect; nearly all actives have a fitted effect of over 35% in size
# Condition set: KeratinoSens HaCaT ARE-luciferase, luminescence, 24 h; series mostly up to 92.4 µM
Inconclusive results are not listed. The source made the active and inactive calls. Calls come from the whole dose curve.

Worked cases, activity, positive = activation given:
| Compound | Result |
| --- | --- |
| CC(NN)c1ccccc1 (configuration not stated) | -1.07% [at 19 µM] (inactive) |
| CC(C)Cn1cnc2c(N)nc3ccccc3c21 | 7.96% [at 19 µM] (inactive) |
| NCC[C@H](O)C(=O)N[C@@H]1C[C@H](N)[C@@H](O[C@H]2O[C@H](CN)[C@@H](O)[C@H](O)[C@H]2O)[C@H](O)[C@H]1O[C@H]1O[C@H](CO)[C@@H](O)[C@H](N)[C@H]1O | 1.57% [at 0.349 µM] (inactive) |
| COC(=O)C1CC(=O)C(C(=O)OC)CC1=O (configuration not stated) | -3.71% [at 8.39 µM] (inactive) |
| NC[C@H]1O[C@H](O[C@H]2[C@H](O[C@@H]3O[C@H](CO)[C@@H](O)[C@H]3O)C(O)[C@H](N)C[C@@H]2N)[C@H](N)[C@@H](O)[C@@H]1O (some centres not stated) | -8.73% [at 8.39 µM] (inactive) |
| CCCCCCCCCCCCCCN(C)C | 2.64% [at 19 µM] (inactive) |

The record that follows has no activity, positive = activation shown yet.
Can you look up the measured activity, positive = activation of C[N+]1(CC2COC(c3ccccc3)(c3ccccc3)O2)CCCCC1 (configuration not stated) for me?
-7.02% [at 19 µM] (inactive)
